molecular target: EAAT2 (Homo sapiens, UniProt P43004); assay: [3H]D-aspartate uptake by EAAT2 transiently expressed in C17.2 cells; conditions: IC50, EAAT2 interaction, first experimental in vitro conditions (single concentrations, simultaneous addition)
pIC50: −log10 of the molar value.
Readout: pIC50

Reported pIC50, molecule COC(=O)[C@@H](N)CC(=O)Nc1ccc2c(c1)Cc1cc(F)ccc1-2 [compound 1] : ____
< 5.00

# credit: patent US9499472B2
